- System: cryptic exon within intron 49 of the Huntingtin (HTT) transcripts, GM04724 (CAG 70/20) Huntington's disease patient lymphoblasts
- protocol.summary: Quantitative splicing assay (HTT)
- Format: cell-based, human
- condition.summary: average, read-out: HTT Potency - Splicing: E49b EC50 (average)
Let's look at some compounds and their measured EC50.
quantity.kind: EC50

compound: C[C@]12CC[C@H](C[C@@H](Oc3ccc(-c4ccc(-c5cn[nH]c5)cc4O)nn3)C1)N2 (single isomer, unassigned; ent1)
recorded.value: 0.01 to 15 nM
--
compound: COCC12CCCC(CC(Oc3ccc(-c4ccc(-c5cnn(C)c5)cc4O)nn3)C1)N2 (single isomer, unassigned; ent2) [316-Ent2]
recorded.value: 16 to 50 nM
--
compound: COCC12CCCC(CC(Oc3ccc(-c4ccc(-c5cnn(C)c5)cc4O)nn3)C1)N2 (single isomer, unassigned; ent1) [316-Ent1]
recorded.value: 16 to 50 nM

====

Let's look at some molecules and their measured EC50.
- Tested on: cryptic exon within intron 49 of the Huntingtin (HTT) transcripts, GM04724 (CAG 70/20) Huntington's disease patient lymphoblasts
- protocol.summary: Quantitative splicing assay (HTT)
- Type: cell-based, human
- condition.summary: average, read-out: HTT Potency - Splicing: E49-50 EC50 (average)

molecule: C[C@]12CC[C@H](C[C@@H](Oc3ccc(-c4ccc(-n5ccnc5)cc4O)nn3)C1)N2 (single isomer, unassigned; ent1)
EC50: 16 to 50 nM
//
molecule: C[C@]12CC[C@H](C[C@@H](Oc3ccc(-c4ccc(-c5cn[nH]c5)cc4O)nn3)C1)N2 (single isomer, unassigned; ent1)
EC50: 0.01 to 15 nM
//
molecule: CC12CCC(CC(Oc3ccc(-c4ccc(-c5cn[nH]c5)cc4O)nn3)C1)N2 (single isomer, unassigned; ent2)
EC50: 0.01 to 15 nM

====

Let's look at some compounds and their measured EC50.
- Tested on: mHTT protein
- protocol.summary: mHTT protein assay, 2B7-MW1 Mesoscale Discovery (MSD)
- Format: cell-based, human
- condition.summary: GM04724 lymphoblast cells, 48 hours, 2B7-MW1 MSD; average; read-out: HTT Potency - Protein & Cytotoxicity: EC50 mHTT (average)
quantity.kind: EC50

compound: CN1[C@@H]2CCC[C@H]1C[C@H](Oc1ccc(-c3ccc(-n4ccnc4)cc3O)nn1)C2
tgt: mHTT protein
quantity.kind: EC50
recorded.value: 501 to 10000 nM

compound: COCC12CCC(CC(N(C)c3ccc(-c4cc(F)c(-n5ccnc5)cc4O)nn3)C1)N2 (single isomer, unassigned; ent1) [315-Ent1]
tgt: mHTT protein
quantity.kind: EC50
recorded.value: 0.01 to 15 nM

compound: COc1cc(-c2ccc(-c3ccc(N(C)C4CC5CCC(C)(C4)N5)nn3)c(O)c2)cnn1 (single isomer, unassigned; ent2)
tgt: mHTT protein
quantity.kind: EC50
recorded.value: 0.01 to 15 nM

compound: CC12CCC(CC(Oc3ccc(-c4ccc(-c5cn[nH]c5)cc4O)nn3)C1)N2 (single isomer, unassigned; ent2)
tgt: mHTT protein
quantity.kind: EC50
recorded.value: 0.01 to 15 nM

compound: CN1[C@@H]2CC[C@H]1C[C@H](Oc1ccc(-c3ccc(-c4cn[nH]c4)cc3O)nn1)C2
tgt: mHTT protein
quantity.kind: EC50
recorded.value: 101 to 500 nM

compound: COCC12CCC(CC(N(C)c3ccc(-c4cc(F)c(-n5ccnc5)cc4O)nn3)C1)N2 (single isomer, unassigned; ent2) [315-Ent2]
tgt: mHTT protein
quantity.kind: EC50
recorded.value: 0.01 to 15 nM

compound: COc1cc(-c2ccc(-c3ccc(N(C)[C@@H]4C[C@H]5CC[C@@](C)(C4)N5)nn3)c(O)c2)cnn1 (single isomer, unassigned; ent1)
tgt: mHTT protein
quantity.kind: EC50
recorded.value: 0.01 to 15 nM

====

- Tested on: MDR1-MDCK cell monolayers
- protocol.summary: MDCK-MDR1 permeability assay, blood-brain-barrier (BBB) penetration potential
- Assay type: in vitro ADME
- condition.summary: B-A direction
- Description: Each determination is performed in duplicate. […] Analytical conditions are outlined below. Papp=(dCr/dt)×Vr/(A×CA) (1)
quantity.kind: General MDCK-MDR1: % Recov B-A (%)

compound: CN(c1ccc(-c2ccc(-n3ccnc3)cc2O)nn1)C1CC2CCC(C)(C1)N2 (single isomer, unassigned; ent2)
tgt: MDR1-MDCK cell monolayers
quantity.kind: General MDCK-MDR1: % Recov B-A
units.text: %
recorded.value: 83
--
compound: COc1cc(-c2ccc(-c3ccc(N(C)C4CC5CCCC(C)(C4)N5)nn3)c(O)c2)cnn1 (single isomer, unassigned; ent2)
tgt: MDR1-MDCK cell monolayers
quantity.kind: General MDCK-MDR1: % Recov B-A
units.text: %
recorded.value: 83
--
compound: CN(c1ccc(-c2ccc(-n3ccnc3)cc2O)nn1)[C@@H]1C[C@H]2CC[C@@](C)(C1)N2 (single isomer, unassigned; ent1)
tgt: MDR1-MDCK cell monolayers
quantity.kind: General MDCK-MDR1: % Recov B-A
units.text: %
recorded.value: 90
--
compound: COCC12CCCC(CC(Oc3ccc(-c4ccc(-c5cnn(C)c5)cc4O)nn3)C1)N2 (single isomer, unassigned; ent2) [316-Ent2]
tgt: MDR1-MDCK cell monolayers
quantity.kind: General MDCK-MDR1: % Recov B-A
units.text: %
recorded.value: 106
--
compound: C[C@]12CC[C@H](C[C@@H](Oc3ccc(-c4ccc(-c5cn[nH]c5)cc4O)nn3)C1)N2 (single isomer, unassigned; ent1)
tgt: MDR1-MDCK cell monolayers
quantity.kind: General MDCK-MDR1: % Recov B-A
units.text: %
recorded.value: 93
--
compound: COCC12CCCC(CC(Oc3ccc(-c4ccc(-c5cnn(C)c5)cc4O)nn3)C1)N2 (single isomer, unassigned; ent1) [316-Ent1]
tgt: MDR1-MDCK cell monolayers
quantity.kind: General MDCK-MDR1: % Recov B-A
units.text: %
recorded.value: 96

====

Let's look at some compounds and their measured General MDCK-MDR1: Efflux.
- Test system: MDR1-MDCK cell monolayers
- protocol.summary: MDCK-MDR1 permeability assay, blood-brain-barrier (BBB) penetration potential
- Format: in vitro ADME
- condition.summary: efflux ratio
- Procedure: Each determination is performed in duplicate. […] Analytical conditions are outlined below. Papp=(dCr/dt)×Vr/(A×CA) (1)
quantity.kind: General MDCK-MDR1: Efflux

compound: CC12CCC(CC(Oc3ccc(-c4ccc(-c5cn[nH]c5)cc4O)nn3)C1)N2 (single isomer, unassigned; ent2) [309-Ent2]
quantity.kind: General MDCK-MDR1: Efflux
recorded.value: 50

compound: COc1cc(-c2ccc(-c3ccc(N(C)[C@@H]4C[C@H]5CCC[C@@](C)(C4)N5)nn3)c(O)c2)cnn1 (single isomer, unassigned; ent1) [311-Ent1]
quantity.kind: General MDCK-MDR1: Efflux
recorded.value: 180

compound: C[C@]12CC[C@H](C[C@@H](Oc3ccc(-c4ccc(-n5ccnc5)cc4O)nn3)C1)N2 (single isomer, unassigned; ent1) [303-Ent1]
quantity.kind: General MDCK-MDR1: Efflux
recorded.value: 40

compound: C[C@]12CC[C@H](C[C@@H](Oc3ccc(-c4ccc(-c5cn[nH]c5)cc4O)nn3)C1)N2 (single isomer, unassigned; ent1) [309-Ent1]
quantity.kind: General MDCK-MDR1: Efflux
recorded.value: 68

compound: COCC12CCCC(CC(Oc3ccc(-c4ccc(-c5cnn(C)c5)cc4O)nn3)C1)N2 (single isomer, unassigned; ent2) [316-Ent2]
quantity.kind: General MDCK-MDR1: Efflux
recorded.value: 40

compound: CC12CCC(CC(Oc3ccc(-c4ccc(-n5ccnc5)cc4O)nn3)C1)N2 (single isomer, unassigned; ent2) [303-Ent2]
quantity.kind: General MDCK-MDR1: Efflux
recorded.value: 62

====

- Tested on: MDR1-MDCK cell monolayers
- protocol.summary: MDCK-MDR1 permeability assay, blood-brain-barrier (BBB) penetration potential
- Type: in vitro ADME
- condition.summary: A-B direction
quantity.kind: General MDCK-MDR1: % Recov A-B (%)

compound: COc1cc(-c2ccc(-c3ccc(N(C)[C@@H]4C[C@H]5CCC[C@@](C)(C4)N5)nn3)c(O)c2)cnn1 (single isomer, unassigned; ent1) [311-Ent1]
recorded.value: 93
--
compound: CC12CCC(CC(Oc3ccc(-c4ccc(-n5ccnc5)cc4O)nn3)C1)N2 (single isomer, unassigned; ent2) [303-Ent2]
recorded.value: 86
--
compound: C[C@]12CC[C@H](C[C@@H](Oc3ccc(-c4ccc(-n5ccnc5)cc4O)nn3)C1)N2 (single isomer, unassigned; ent1) [303-Ent1]
recorded.value: 90

====

Let's look at some compounds and their measured EC50.
- Tested on: mHTT protein
- protocol.summary: mHTT protein assay, 2B7-MW1 Mesoscale Discovery (MSD)
- Type: cell-based, human
- condition.summary: GM04724 lymphoblast cells, 48 hours, 2B7-MW1 MSD; average; read-out: HTT Potency - Protein & Cytotoxicity: EC50 mHTT (average)
quantity.kind: EC50

compound: COCC12CCCC(CC(Oc3ccc(-c4ccc(-c5cnn(C)c5)cc4O)nn3)C1)N2 (single isomer, unassigned; ent2) [316-Ent2]
recorded.value: 16 to 50 nM
--
compound: CN(c1ccc(-c2ccc(-c3cnn(C)c3)cc2O)nn1)C1CC2(C)CCC(N2)C1F (single isomer, unassigned; ent2)
recorded.value: 0.01 to 15 nM
--
compound: COc1cc(-c2ccc(-c3ccc(N(C)[C@@H]4C[C@H]5CCC[C@@](C)(C4)N5)nn3)c(O)c2)cnn1 (single isomer, unassigned; ent1)
recorded.value: 0.01 to 15 nM
